SYSTEM: full-length SARM1 (FL-SARM1) (Homo sapiens, UniProt Q6SZW1)
Sequence (Q6SZW1 28-724): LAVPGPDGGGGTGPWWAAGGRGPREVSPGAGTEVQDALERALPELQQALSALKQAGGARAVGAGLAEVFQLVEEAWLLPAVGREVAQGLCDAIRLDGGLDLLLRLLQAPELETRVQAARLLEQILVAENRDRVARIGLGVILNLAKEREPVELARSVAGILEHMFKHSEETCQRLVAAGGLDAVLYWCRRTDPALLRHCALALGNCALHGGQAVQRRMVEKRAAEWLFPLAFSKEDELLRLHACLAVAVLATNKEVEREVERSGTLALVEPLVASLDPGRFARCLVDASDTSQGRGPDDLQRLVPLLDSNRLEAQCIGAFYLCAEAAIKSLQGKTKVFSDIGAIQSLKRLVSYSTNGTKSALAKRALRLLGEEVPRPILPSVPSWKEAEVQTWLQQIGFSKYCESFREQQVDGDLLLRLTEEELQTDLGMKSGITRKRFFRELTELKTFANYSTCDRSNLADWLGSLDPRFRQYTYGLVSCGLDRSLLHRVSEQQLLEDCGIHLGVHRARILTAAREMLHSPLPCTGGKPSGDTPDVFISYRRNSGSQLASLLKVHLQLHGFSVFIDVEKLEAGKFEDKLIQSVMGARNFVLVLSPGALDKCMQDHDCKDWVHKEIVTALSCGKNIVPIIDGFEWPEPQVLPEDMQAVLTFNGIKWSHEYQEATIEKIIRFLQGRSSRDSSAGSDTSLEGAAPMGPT
TEST_DETAILS: FL-SARM1 cellular lysate assay (NAD/NADH-Glo detection of remaining NAD+, NMN-activated)
CONDITION_NOTES: Activity (IC50 class), 11 point curve
RECORDED_METRIC: IC50

Looking up Cc1ccc(NC(=O)[C@H]2CCCN2c2ccccn2)cc1-c1ncc(F)cn1 [Example 279] , I found its IC50 recorded as 1 to 10 µM

Documented IC50 of Cc1ccc(NC(=O)[C@@H]2CC2(F)F)cc1-c1ccc(C#N)cn1 [Example 158] : > 10 µM

Record summary for O=C(Nc1ccc(F)c(-c2ccc(F)cn2)c1)N1C2CCCC1C2 [Example 35] : reported IC50 = 1 to 10 µM

So, Cc1ccc(NC(=O)[C@H]2C3CC(F)(F)C[C@H]32)cc1-c1cccnn1 (stereo partly shown) [Example 288] ? Its IC50 was > 10 µM

Noted for Cc1cc(C(F)(F)F)c(NC(=O)N2[C@@H]3C[C@@H](C)C[C@H]2C3)cc1-c1cccnn1 [Example 244] : its IC50 reads > 10 µM

Consider Cc1ccc(NC(=O)[C@@H]2CC2(F)F)cc1-c1ccc(C2CC2)cn1 [Example 149] . Its measured IC50 is > 10 µM

Lookup result for Cc1ccc(NC(=O)C2[C@@H]3CC[C@@]2(c2ccnn2C)C3)cc1-c1ncc(F)cn1 (single isomer, unassigned) [Example 203] ; measured IC50: > 10 µM

Kindly note the recorded IC50 for Cc1ccc(NC(=O)N2CCc3ccccc3C2)cc1-c1ccccn1 [Example 101] , which is 1 to 10 µM

Per the record, CCN1CC2CC(C1)N2C(=O)Nc1ccc(C)c(-c2ccccn2)c1 [Example 7] has IC50 of 1 to 10 µM

Cc1ccc(NC(=O)[C@@H]2CC[C@@H](C3CC3)N2c2ccccn2)cc1-c1ncc(F)cn1 (racemic) [Example 274] yielded IC50 of 1 to 10 µM

IC50 for Cc1ccc(NC(=O)C2C3CCC2(c2ccn(C)n2)C3)cc1-c1ncc(F)cn1 (mixture of isomers) [Example 317] is 1 to 10 µM

Reported IC50 of Cc1ccc(NC(=O)C2C[C@H]3C[C@@H]23)cc1-c1ccccn1 (stereo partly shown) [Example 117] : 1 to 10 µM

IC50 measured on Cc1ccc(NC(=O)[C@H]2C[C@@H]3[C@H](C2)C3(F)F)cc1-c1cccnn1 [Example 177] = > 10 µM

compound CO[C@@H]1C[C@H](C(=O)Nc2ccc(C)c(-c3ncc(F)cn3)c2)N(c2ncccn2)C1 [Example 324] , IC50 observed: > 10 µM

Entry Cc1ccc(NC(=O)[C@H]2C[C@@H](c3ccccc3)CN2c2ncccn2)cc1-c1ncc(F)cn1 [Example 319] , IC50 reported as 1 to 10 µM

Consider Cc1ccc(NC(=O)[C@H]2CC[C@H](C)N2c2ccccn2)cc1-c1ncc(F)cn1 [Example 281] . Its measured IC50 is 1 to 10 µM

IC50 in this record for Cc1cc(F)c(NC(=O)N2C3CC2CN(CC(F)(F)F)C3)cc1-c1ccccn1 [Example 3] : 1 to 10 µM

Reported IC50 of Cc1ccc(NC(=O)CC2CCC2)cc1-c1cccnn1 [Example 167] : > 10 µM

# IC50 of Cc1ccc(NC(=O)OCCc2ccccc2)cc1-c1ncccn1 [Example 178] = 1 to 10 µM

The compound identified as CCO[C@H]1CC2C[C@H](C1)N2C(=O)Nc1ccc(C)c(-c2ccccn2)c1 [Example 79] registered its IC50 at 1 to 10 µM

Entry CC1(c2ccc(NC(=O)[C@@H]3CC3(F)F)cc2-c2ccccn2)CC1 [Example 133] — recorded IC50 = > 10 µM

Lookup result for CO[C@@H]1CCCN(C(=O)Nc2ccc(C(F)(F)F)c(-c3ncc(F)cn3)c2)CC1 [Example 306] ; measured IC50: 1 to 10 µM

Notebook: Cc1ccc(NC(=O)[C@H]2C[C@@H](C(F)(F)F)CN2c2ncccn2)cc1-c1cccnn1 [Example 294] , IC50 read as 1 to 10 µM

Input CC(=O)N1[C@H](C)CC[C@@H]1C(=O)Nc1ccc(C)c(-c2ncc(F)cn2)c1 [Example 286] . Output IC50: 1 to 10 µM

Notebook: Cc1ccc(NC(=O)N2C3CCCC2C3)cc1-c1ccc(C(F)(F)F)nn1 [Example 61] , IC50 read as > 10 µM

Recorded IC50 (compound CC[C@H]1C[C@H]1C(=O)Nc1ccc(C)c(-c2ccccn2)c1 (single isomer, unassigned) [Example 110] ): 1 to 10 µM

Value of measured IC50 for the entry Cc1ccc(NC(=O)N2C3CC2CN(c2ccn(C)n2)C3)cc1-c1ccccn1 [Example 85] : > 10 µM

According to the records, this compound Cc1ccc(NC(=O)C2COC(C)(C)CN2c2ncccn2)cc1-c1ncccn1 (single isomer, unassigned) [Example 208] displays IC50 of 1 to 10 µM

Looking up Cc1ccc(NC(=O)C2CC23CCC3)cc1-c1cccnn1 (racemic) [Example 293] , I see its IC50 listed as 1 to 10 µM

Given item Cc1ccc(NC(=O)[C@H]2[C@@H](C)CCN2c2ccccn2)cc1-c1ncc(F)cn1 [Example 277] , the value recorded as its IC50 is 1 to 10 µM

Recorded IC50 (compound COc1ccnc(-c2cc(NC(=O)N3C4CCCC3C4)ccc2C)n1 [Example 65] ): 1 to 10 µM

All values here come from patent US20250171462A1.
